Where these numbers come from: patent US20250011363A1

# tgt: acetylcholine receptor
# assay-explanation: SPR, receptor immobilised on chip, peptide at 10 µM
observed-property: Binding affinity (RU)
Give bare numbers, in RU.

Answered examples (5):
>>> measurement("RRYLKK [6mer-2-483]")
121
>>> measurement("KSYCKR [6mer-2-520]")
144
>>> measurement("KRFCRR [6mer-2-475]")
139
>>> measurement("RGFYRK [6mer-2-509]")
136
>>> measurement("RQIQKR [6mer-2-485]")
148

Record Binding affinity for all entries; do not skip any.
1. KLRTKK [6mer-2-517]
2. KSYTRR [6mer-2-497]
3. KSFCKR [6mer-2-502]

[153, 148, 144]
